// provenance: patent US8476461B2

- TEST_SUMMARY: Optical / fluorescence properties (absorption, emission, extinction coefficient, quantum yield, lifetime)
- Type: physicochemical
- SETUP_CONDITIONS: in dichloromethane
Collected ε values appear next to each entry.

MOLECULAR_STRING | ε, M⁻¹ cm⁻¹
COCCOCC#C[B-]1(C#CCOCCOC)n2c(C)cc(C)c2C(c2ccc(C(=O)NCCN)cc2)=C2C(C)=CC(C)=[N+]21 | 65000
COCCOCC#C[B-]1(C#CCOCCOC)n2c(/C=C/c3ccc(OCCOCCOC)cc3)cc(C)c2C(c2ccc(I)cc2)=C2C(C)=CC(/C=C/c3ccc(OCCOCCOC)cc3)=[N+]21 | 126600
CCC1=C(C)C2=C(c3ccc(I)cc3)c3c(C)c(CC)c(C)n3[B-](C#CCOCCOC)(C#CCOCCOC)[N+]2=C1C | 82000

* * *

- TEST_SUMMARY: Optical / fluorescence properties (absorption, emission, extinction coefficient, quantum yield, lifetime)
- Assay type: physicochemical
- SETUP_CONDITIONS: in dichloromethane
Listing: λabs of selected compounds

MOLECULAR_STRING | λabs (nm)
COCCOCC#C[B-]1(C#CCOCCOC)n2c(C)cc(C)c2C(c2ccc(I)cc2)=C2C(C)=CC(C)=[N+]21 | 500
COCCOCC#C[B-]1(C#CCOCCOC)n2c(C)cc(C)c2C(c2ccc(C(=O)O)cc2)=C2C(C)=CC(C)=[N+]21 | 501
COCCOCC#C[B-]1(C#CCOCCOC)n2c(/C=C/c3ccc(OCCOCCOC)cc3)cc(C)c2C(c2ccc(I)cc2)=C2C(C)=CC(/C=C/c3ccc(OCCOCCOC)cc3)=[N+]21 | 646

* * *

- TEST_SUMMARY: Optical / fluorescence properties (absorption, emission, extinction coefficient, quantum yield, lifetime)
- Assay type: physicochemical
- SETUP_CONDITIONS: asterisk: in water and PBS buffer
Marks after values point to notes of the source that are not given here.

MOLECULAR_STRING | λabs
CCC1=C(C)C2=C(c3ccc(C(=O)O)cc3)c3c(C)c(CC)c(C)n3[B-](C#CCOCCOC)(C#CCOCCOC)[N+]2=C1C | 517* nm
COCCOCC#C[B-]1(C#CCOCCOC)n2c(/C=C/c3ccc(OCCOCCOC)cc3)cc(C)c2C(c2ccc(C(=O)O)cc2)=C2C(C)=CC(C)=[N+]21 | 564* nm
COCCOCC#C[B-]1(C#CCOCCOC)n2c(C)cc(C)c2C(c2ccc(C(=O)O)cc2)=C2C(C)=CC(C)=[N+]21 | 494* nm
COCCOCC#C[B-]1(C#CCOCCOC)n2c(C)cc(C)c2C(c2ccc(C(=O)NCC(=O)O)cc2)=C2C(C)=CC(C)=[N+]21 | 495* nm
CCC1=C(C)C2=C(c3ccc(I)cc3)c3c(C)c(CC)c(C)n3[B-](C#CC[N+](C)(C)CCCS(=O)(=O)[O-])(C#CC[N+](C)(C)CCCS(=O)(=O)[O-])[N+]2=C1C | 519* nm

* * *

- TEST_SUMMARY: Optical / fluorescence properties (absorption, emission, extinction coefficient, quantum yield, lifetime)
- Format: physicochemical
- SETUP_CONDITIONS: asterisk: in water and PBS buffer
Marks after values point to notes of the source that are not given here.
QUANTITY_KIND: ε

COMPOUND | OBS_VALUE
COCCOCC#C[B-]1(C#CCOCCOC)n2c(C)cc(C)c2C(c2ccc(C(=O)O)cc2)=C2C(C)=CC(C)=[N+]21 [Ia-9] | 74000* M^−1 cm^−1
COCCOCC#C[B-]1(C#CCOCCOC)n2c(C)cc(C)c2C(c2ccc(C(=O)NCC(=O)O)cc2)=C2C(C)=CC(C)=[N+]21 [Ia-15] | 62000* M^−1 cm^−1
COCCOCC#C[B-]1(C#CCOCCOC)n2c(/C=C/c3ccc(OCCOCCOC)cc3)cc(C)c2C(c2ccc(C(=O)O)cc2)=C2C(C)=CC(C)=[N+]21 [Ia-12] | 70000* M^−1 cm^−1
CCC1=C(C)C2=C(c3ccc(I)cc3)c3c(C)c(CC)c(C)n3[B-](C#CC[N+](C)(C)CCCS(=O)(=O)[O-])(C#CC[N+](C)(C)CCCS(=O)(=O)[O-])[N+]2=C1C [Ic-1] | 72000* M^−1 cm^−1
CCC1=C(C)C2=C(c3ccc(C(=O)O)cc3)c3c(C)c(CC)c(C)n3[B-](C#CCOCCOC)(C#CCOCCOC)[N+]2=C1C [Ia-10] | 65000* M^−1 cm^−1
